Overview of recorded cAMP released with respect to control, 1 nM peptide, UMR-106 cells for various binders
Target: T1, rat PTH-1R (rat PTHR endogenously expressed on UMR-106 rat osteosarcoma cells) (rat, UniProt P25961 27-591)
T1 sequence (looked up): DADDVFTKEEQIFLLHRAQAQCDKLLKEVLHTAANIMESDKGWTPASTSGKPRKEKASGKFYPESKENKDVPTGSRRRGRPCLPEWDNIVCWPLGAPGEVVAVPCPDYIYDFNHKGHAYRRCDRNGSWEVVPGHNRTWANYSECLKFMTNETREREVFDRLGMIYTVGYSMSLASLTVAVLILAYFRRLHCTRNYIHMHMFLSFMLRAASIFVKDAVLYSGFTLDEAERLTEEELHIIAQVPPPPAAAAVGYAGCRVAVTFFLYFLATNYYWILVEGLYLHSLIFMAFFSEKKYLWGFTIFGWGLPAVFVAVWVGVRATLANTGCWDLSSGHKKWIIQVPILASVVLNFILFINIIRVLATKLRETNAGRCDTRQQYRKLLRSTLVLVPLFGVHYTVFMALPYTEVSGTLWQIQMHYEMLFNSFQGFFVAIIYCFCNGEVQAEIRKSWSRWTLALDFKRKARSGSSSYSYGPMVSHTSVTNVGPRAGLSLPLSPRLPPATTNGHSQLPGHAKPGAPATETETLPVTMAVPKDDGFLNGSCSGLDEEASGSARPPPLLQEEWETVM
Assay: cell-based or functional assay
Where no end group is shown, it is not given here. [ ]: non-standard residue; d: D form. Arg(NO2) = N=C(NCCC[C@H](N)C(=O)O)N[N+](=O)[O-]; αMePhe(2,6-F2) = C[C@](N)(Cc1c(F)cccc1F)C(=O)O; αMePhe(2-F) = C[C@](N)(Cc1ccccc1F)C(=O)O; Nle = CCCC[C@H](N)C(=O)O; Aib = CC(C)(N)C(=O)O

Please review the entries below; each comes with its answer.
[Aib]V[Aib]EIQ[αMePhe(2-F)][Nle]HQ[αMePhe(2,6-F2)]A[Arg(NO2)][αMePhe(2-F)] [Seq. ID. 521]: 21 percent of control
[Aib]V[Aib]EIQ[αMePhe(2-F)][Nle]HQ[αMePhe(2,6-F2)][Aib][αMePhe(2,6-F2)][αMePhe(2,6-F2)] [Seq. ID. 514]: 19 percent of control

With those in mind, consider the next binder.
Tell me the measured cAMP released with respect to control, 1 nM peptide, UMR-106 cells of SVSEIQLMHNLGKHLNSMERVEWLRKKLQDVHNF [PTH (1-34)] , please. 41 percent of control

The reported numbers originate from patent US8383581B2.
